biological target: SRMS (Homo sapiens, UniProt Q9H3Y6); construct: made in house; host or cells: HEK293 (transient transfection), unpurified extract; test: biochemical; assay type: binding; conditions: read-out: percent of DMSO vehicle control
Sequence (Q9H3Y6 whole entry): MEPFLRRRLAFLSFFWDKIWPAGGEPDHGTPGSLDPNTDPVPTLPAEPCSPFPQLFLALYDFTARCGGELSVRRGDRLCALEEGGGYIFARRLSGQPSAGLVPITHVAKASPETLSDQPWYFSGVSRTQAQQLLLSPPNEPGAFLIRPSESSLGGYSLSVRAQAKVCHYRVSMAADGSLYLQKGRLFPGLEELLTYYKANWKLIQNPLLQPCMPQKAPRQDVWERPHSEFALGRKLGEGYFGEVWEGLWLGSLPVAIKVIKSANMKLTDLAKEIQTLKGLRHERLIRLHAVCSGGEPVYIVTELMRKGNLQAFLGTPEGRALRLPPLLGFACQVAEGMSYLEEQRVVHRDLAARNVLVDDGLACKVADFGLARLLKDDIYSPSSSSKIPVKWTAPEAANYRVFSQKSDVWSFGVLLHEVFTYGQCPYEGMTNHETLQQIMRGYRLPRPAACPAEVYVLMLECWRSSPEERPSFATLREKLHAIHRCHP
Non-standard residues stand in square brackets, D forms with d. Residues, ends and D or L forms follow the SMILES beside them. *: point of attachment. pY = N[C@@H](Cc1ccc(OP(=O)(O)O)cc1)C(=O)O; Caffeoyl = O=C(/C=C/c1ccc(O)c(O)c1)*
remaining activity at 10 µM values, listed per item
parameter.measured: remaining activity at 10 µM (%)

compound	value.measured
CC(=O)N[C@@H](Cc1ccc(CP(=O)(O)O)cc1)C(=O)NC1(C(=O)N[C@@H](CC(N)=O)C(=O)NCCCc2c(O)ccc3ccccc23)CCCCC1	65.3
NC(=O)CC[C@H](NC(=O)[C@@H]1CC[C@@H]2CCN(C(=O)CCCCCC#Cc3cccc4c3CN(C3CCC(=O)NC3=O)C4=O)C[C@H](NC(=O)c3cc4cc(C(F)(F)P(=O)(O)O)ccc4[nH]3)C(=O)N21)C(=O)NC(c1ccccc1)c1ccccc1 (stereo partly shown)	102
CC[C@H](C)[C@H](NC(=O)[C@H](CCC(=O)O)NC(=O)[C@H](CCC(=O)O)NC(=O)[C@H](Cc1ccc(OP(=O)(O)O)cc1)NC(=O)/C=C/c1ccc(O)c(O)c1)C(=O)N[C@@H](CCC(=O)O)C(=O)O [Caffeic acid-pYEEIE] (Caffeoyl-[pY]EEIE-OH)	0.1
CC(=O)N1CC[C@H]2CC[C@@H](C(=O)N[C@@H](CCC(N)=O)C(=O)NC(c3ccccc3)c3ccccc3)N2C(=O)[C@@H](NC(=O)c2cc3cc(C(F)(F)P(=O)(O)O)ccc3[nH]2)C1	123

* * *

target: FGR (Homo sapiens); construct: the DNA-tagged SH2 domain concentrations used in this study were <0.1 nM; made in house; host or cells: HEK293 (transient transfection; unpurified extract); assay: biochemical; type: binding; conditions: dose-response; read-out: KD
Sequence (P09769 144-241 limits assumed): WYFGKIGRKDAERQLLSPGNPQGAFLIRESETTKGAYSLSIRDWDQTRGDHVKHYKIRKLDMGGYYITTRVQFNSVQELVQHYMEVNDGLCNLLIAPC
pKd: −log10 of the molar value.

smiles.input	pKd
C/C(=C\C(=O)N[C@H](C(=O)N1CCC[C@H]1C(=O)N(c1ccccc1)c1ccc(I)cc1)C(C)(C)C)c1ccc(OP(=O)(O)O)cc1	5.64

* * *

molecular target: STAT6 (Homo sapiens, UniProt P42226); construct: made in house; host or cells: HEK293 (transient transfection), unpurified extract; test: biochemical; type: binding; settings: read-out: percent of DMSO vehicle control
Sequence (P42226 whole entry): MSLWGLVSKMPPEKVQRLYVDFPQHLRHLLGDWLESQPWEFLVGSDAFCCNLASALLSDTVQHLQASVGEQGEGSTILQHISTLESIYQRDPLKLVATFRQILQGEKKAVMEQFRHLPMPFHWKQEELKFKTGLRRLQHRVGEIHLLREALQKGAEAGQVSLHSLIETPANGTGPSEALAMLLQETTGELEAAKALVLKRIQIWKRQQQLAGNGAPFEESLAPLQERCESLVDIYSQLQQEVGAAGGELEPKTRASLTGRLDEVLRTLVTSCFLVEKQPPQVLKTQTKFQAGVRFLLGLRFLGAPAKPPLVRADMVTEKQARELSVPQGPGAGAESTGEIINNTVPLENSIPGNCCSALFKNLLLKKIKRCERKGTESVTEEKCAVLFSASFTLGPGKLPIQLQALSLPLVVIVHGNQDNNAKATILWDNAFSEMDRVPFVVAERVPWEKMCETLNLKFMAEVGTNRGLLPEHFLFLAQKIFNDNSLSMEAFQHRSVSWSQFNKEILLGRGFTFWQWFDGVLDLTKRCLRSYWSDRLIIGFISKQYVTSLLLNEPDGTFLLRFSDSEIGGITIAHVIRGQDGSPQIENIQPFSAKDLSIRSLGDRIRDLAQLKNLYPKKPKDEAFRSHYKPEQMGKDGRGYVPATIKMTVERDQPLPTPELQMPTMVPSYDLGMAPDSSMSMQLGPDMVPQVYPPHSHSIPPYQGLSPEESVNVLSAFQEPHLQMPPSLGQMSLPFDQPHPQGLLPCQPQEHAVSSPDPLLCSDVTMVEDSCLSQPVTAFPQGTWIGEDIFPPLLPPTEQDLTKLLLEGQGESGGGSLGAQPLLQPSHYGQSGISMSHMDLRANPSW
Non-standard residues stand in square brackets, D forms with d. Residues, ends and D or L forms follow the SMILES beside them. *: point of attachment. pY = N[C@@H](Cc1ccc(OP(=O)(O)O)cc1)C(=O)O; Caffeoyl = O=C(/C=C/c1ccc(O)c(O)c1)*
percent of DMSO vehicle control at 10 µM values, listed per item
parameter.measured: percent of DMSO vehicle control at 10 µM (%)

compound	parameter.measured	value.measured
CC(=O)N[C@@H](Cc1ccc(CP(=O)(O)O)cc1)C(=O)NC1(C(=O)N[C@@H](CC(N)=O)C(=O)NCCCc2c(O)ccc3ccccc23)CCCCC1 [CGP78850]	percent of DMSO vehicle control at 10 µM	104
NC(=O)CC[C@H](NC(=O)[C@@H]1CC[C@@H]2CCN(C(=O)CCCCCC#Cc3cccc4c3CN(C3CCC(=O)NC3=O)C4=O)C[C@H](NC(=O)c3cc4cc(C(F)(F)P(=O)(O)O)ccc4[nH]3)C(=O)N21)C(=O)NC(c1ccccc1)c1ccccc1 (stereo partly shown) [SD-36]	percent of DMSO vehicle control at 10 µM	4.2
CC[C@H](C)[C@H](NC(=O)[C@H](CCC(=O)O)NC(=O)[C@H](CCC(=O)O)NC(=O)[C@H](Cc1ccc(OP(=O)(O)O)cc1)NC(=O)/C=C/c1ccc(O)c(O)c1)C(=O)N[C@@H](CCC(=O)O)C(=O)O [Caffeic acid-pYEEIE] (Caffeoyl-[pY]EEIE-OH)	percent of DMSO vehicle control at 10 µM	103
CC(=O)N1CC[C@H]2CC[C@@H](C(=O)N[C@@H](CCC(N)=O)C(=O)NC(c3ccccc3)c3ccccc3)N2C(=O)[C@@H](NC(=O)c2cc3cc(C(F)(F)P(=O)(O)O)ccc3[nH]2)C1 [SI-109]	percent of DMSO vehicle control at 10 µM	44.5

* * *

biological target: GRB2 (Homo sapiens, UniProt P62993); construct: the DNA-tagged SH2 domain concentrations used in this study were <0.1 nM; made in house; host or cells: HEK293 (transient transfection; unpurified extract); assay: biochemical; type: binding; settings: primary screen, 10 μM
Sequence (P62993 60-152 limits assumed): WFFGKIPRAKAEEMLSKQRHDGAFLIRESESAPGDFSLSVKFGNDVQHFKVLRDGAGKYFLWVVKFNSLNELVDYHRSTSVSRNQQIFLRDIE
Non-standard residues stand in square brackets, D forms with d. Residues, ends and D or L forms follow the SMILES beside them. *: point of attachment. pY = N[C@@H](Cc1ccc(OP(=O)(O)O)cc1)C(=O)O; Caffeoyl = O=C(/C=C/c1ccc(O)c(O)c1)*

compound	percent of DMSO vehicle control
O=C(CCl)Nc1cccc(CNC(=O)[C@H](Cc2ccc(OP(=O)(O)O)cc2)NC(=O)Cc2ccc(F)cc2)c1	103.7%
CC[C@H](C)[C@H](NC(=O)[C@H](CCC(=O)O)NC(=O)[C@H](CCC(=O)O)NC(=O)[C@H](Cc1ccc(OP(=O)(O)O)cc1)NC(=O)/C=C/c1ccc(O)c(O)c1)C(=O)N[C@@H](CCC(=O)O)C(=O)O [Caffeic acid-pYEEIE] (Caffeoyl-[pY]EEIE-OH)	73.4±9.2%
NC(=O)CC[C@H](NC(=O)[C@@H]1CC[C@@H]2CCN(C(=O)CCCCCC#Cc3cccc4c3CN(C3CCC(=O)NC3=O)C4=O)C[C@H](NC(=O)c3cc4cc(C(F)(F)P(=O)(O)O)ccc4[nH]3)C(=O)N21)C(=O)NC(c1ccccc1)c1ccccc1 (some centres unmarked)	92.9±1.6%
CC(=O)N1CC[C@H]2CC[C@@H](C(=O)N[C@@H](CCC(N)=O)C(=O)NC(c3ccccc3)c3ccccc3)N2C(=O)[C@@H](NC(=O)c2cc3cc(C(F)(F)P(=O)(O)O)ccc3[nH]2)C1	104.9%
CC[C@H](C)[C@H](NC(=O)[C@H](CCC(=O)O)NC(=O)[C@H](CCC(=O)O)NC(=O)[C@H](Cc1ccc(OP(=O)(O)O)cc1)NC(C)=O)C(=O)N[C@@H](CCC(=O)O)C(N)=O [Ac-pYEEIE-NH2] (Ac-[pY]EEIE-NH2)	77.1%

* * *

molecular target: GRAP (Homo sapiens); construct: the DNA-tagged SH2 domain concentrations used in this study were <0.1 nM; made in house; host or cells: HEK293 (transient transfection; unpurified extract); test: biochemical; format: binding; conditions: read-out: percent of DMSO vehicle control
Sequence (Q13588 60-154 limits assumed): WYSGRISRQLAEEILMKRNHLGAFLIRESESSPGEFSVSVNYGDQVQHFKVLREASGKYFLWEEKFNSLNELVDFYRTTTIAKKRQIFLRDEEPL
Non-standard residues stand in square brackets, D forms with d. Residues, ends and D or L forms follow the SMILES beside them. *: point of attachment. pY = N[C@@H](Cc1ccc(OP(=O)(O)O)cc1)C(=O)O; Caffeoyl = O=C(/C=C/c1ccc(O)c(O)c1)*
parameter.measured: percent of DMSO vehicle control at 10 µM

compound	target.of.assay	value.measured
CC(=O)N1CC[C@H]2CC[C@@H](C(=O)N[C@@H](CCC(N)=O)C(=O)NC(c3ccccc3)c3ccccc3)N2C(=O)[C@@H](NC(=O)c2cc3cc(C(F)(F)P(=O)(O)O)ccc3[nH]2)C1 [SI-109]	GRAP (Homo sapiens)	141%
CC(=O)N[C@@H](Cc1ccc(CP(=O)(O)O)cc1)C(=O)NC1(C(=O)N[C@@H](CC(N)=O)C(=O)NCCCc2c(O)ccc3ccccc23)CCCCC1 [CGP78850]	GRAP (Homo sapiens)	0%
CC[C@H](C)[C@H](NC(=O)[C@H](CCC(=O)O)NC(=O)[C@H](CCC(=O)O)NC(=O)[C@H](Cc1ccc(OP(=O)(O)O)cc1)NC(=O)/C=C/c1ccc(O)c(O)c1)C(=O)N[C@@H](CCC(=O)O)C(=O)O [Caffeic acid-pYEEIE] (Caffeoyl-[pY]EEIE-OH)	GRAP (Homo sapiens)	110%
NC(=O)CC[C@H](NC(=O)[C@@H]1CC[C@@H]2CCN(C(=O)CCCCCC#Cc3cccc4c3CN(C3CCC(=O)NC3=O)C4=O)C[C@H](NC(=O)c3cc4cc(C(F)(F)P(=O)(O)O)ccc4[nH]3)C(=O)N21)C(=O)NC(c1ccccc1)c1ccccc1 (stereo partly shown) [SD-36]	GRAP (Homo sapiens)	89.2%

* * *

remaining activity at 10 µM values, listed per item
target: LYN (Homo sapiens); construct: the DNA-tagged SH2 domain concentrations used in this study were <0.1 nM; made in house; host or cells: HEK293 (transient transfection, unpurified extract); test: biochemical; format: binding; details: primary screen, 10 μM; read-out: percent of DMSO vehicle control
Sequence (P07948 129-226 limits assumed): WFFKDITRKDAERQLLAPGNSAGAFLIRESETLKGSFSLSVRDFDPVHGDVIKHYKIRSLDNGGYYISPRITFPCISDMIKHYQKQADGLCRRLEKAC
parameter.measured: remaining activity at 10 µM (%)

smiles.input	parameter.measured	value.measured
O=C(COc1ccc2cc(C(=O)Nc3ccccc3)ccc2c1)NCc1ccc(OP(=O)(O)O)c(OP(=O)(O)O)c1	remaining activity at 10 µM	95.6
C/C(=C\C(=O)N[C@H](C(=O)N1CCC[C@H]1C(=O)N(c1ccccc1)c1ccc(I)cc1)C(C)(C)C)c1ccc(OP(=O)(O)O)cc1	remaining activity at 10 µM	73.6
CC(C)(C)[C@H](NC(=O)/C=C/c1ccc(OP(=O)(O)O)cc1)C(=O)N1CCC[C@H]1C(=O)N(c1ccccc1)c1ccc(I)cc1	remaining activity at 10 µM	82.3
O=C(CCl)Nc1cccc(CNC(=O)[C@H](Cc2ccc(OP(=O)(O)O)cc2)NC(=O)Cc2ccc(F)cc2)c1	remaining activity at 10 µM	161

FYI, the data here is from paper PMC12951562.
